- method-summary: S. cerevisiae RM11-1a growth modifiers, primary screen, strain RM11-1a, OD600, basal, 24 h (AID 1177);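 also: cultures grown under basal conditions with no added stressor; test concentration not given here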
- test-context: OD600, 24 h, higher = more signal, called active from +8 up or from −8 down
Each entry below carries its reported z-score.

>  <compound>
O=C1C[C@@](C(=O)NCc2ccccc2)(c2ccc([N+](=O)[O-])cc2)[C@@H](c2ccc(CO)cc2I)N1CC12CC3CC(CC(C3)C1)C2

>  <z-score>
-0.229

$$$$
>  <compound>
CC(C)c1ccc(NN2C(C(O)Cc3ccccc3)C=CC3C(=O)N(c4ccccc4)C(=O)C32)cc1 (centres undefined)

>  <z-score>
0.269

$$$$
>  <compound>
C=C[C@@H](C)[C@@H](OC(=O)Nc1ccc(SC)cc1)c1ccc(OCCO)cc1

>  <z-score>
0.296

$$$$
>  <compound>
COC(=O)C1=CC(CCCO)=CC(c2ccc(CN3CCCC3)cc2)N(Cc2cc3c(cc2Br)OCO3)C=C1C(=O)OC (centres undefined)

>  <z-score>
0.73

$$$$
